experimental system: Cannabinoid receptor 2 (Homo sapiens, UniProt P34972)
Sequence (P34972 whole entry): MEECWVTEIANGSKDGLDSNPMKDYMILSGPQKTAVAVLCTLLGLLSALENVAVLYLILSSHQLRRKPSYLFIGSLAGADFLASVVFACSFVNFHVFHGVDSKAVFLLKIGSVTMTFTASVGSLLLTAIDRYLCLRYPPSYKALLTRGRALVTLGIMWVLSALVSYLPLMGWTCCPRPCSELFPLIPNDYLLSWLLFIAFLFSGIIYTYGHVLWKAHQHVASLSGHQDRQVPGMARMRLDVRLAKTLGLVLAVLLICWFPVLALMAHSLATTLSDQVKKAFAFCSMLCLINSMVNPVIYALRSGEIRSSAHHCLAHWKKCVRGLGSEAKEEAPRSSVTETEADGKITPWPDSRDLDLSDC
assay remarks: Agonist activity at human CB2 receptor expressed in CHO cells assessed as forskolin-stimulated [3H]cyclic-AMP accumulation by scintillation counting analysis relative to WIN 55,212-2
Format: functional, cell-based
Criterion: Emax strictly under 40%. Met: Satisfied. Not met: Not satisfied.

// below: answered compounds
> print(dat)
                                    compound          class
 1  CCCCCn1cc(C(=O)NC(C)CCC(C)C)c(=O)c2c(C)nn(C)c21 (configuration not stated)  Not satisfied
 2  C=CCn1cc(C(=O)NC2CCCCC2)c(=O)c2c(C)nn(C)c21  Not satisfied
 3  CCCCCn1cc(C(=O)NC23CC4CC(CC(C4)C2)C3)c(=O)c2c(C)noc21  Not satisfied
 4  CCCCCn1cc(C(=O)NC23CC4CC(CC(C4)C2)C3)c(=O)c2c(C(C)(C)C)nn(C)c21  Not satisfied
 5  CCCCCn1cc(C(=O)Nc2ccccc2)c(=O)c2c(C)nn(C)c21      Satisfied
 6  CCCCCn1cc(C(=O)NC2CCCCC2)c(=O)c2c(CC)nn(C)c21      Satisfied
 7  CCCCCn1cc(C(=O)NC23CC4CC(CC(C4)C2)C3)c(=O)c2c(CC)nn(C)c21  Not satisfied
 8  CCCCCn1cc(C(=O)NC2CCCCC2)c(=O)c2c(C)csc21      Satisfied
 9  CCCCCn1cc(C(=O)NC23CC4CC(CC(C4)C2)C3)c(=O)c2c(C)csc21      Satisfied
10  Cc1nn(C)c2c1c(=O)c(C(=O)NC1CCCCC1)cn2Cc1ccccc1      Satisfied

# strict comparison: is reported Emax < 40%? input = CCCCCn1cc(C(=O)NC23CC4CC(CC(C4)C2)C3)c(=O)c2c(C)c(C)sc21
Satisfied

# strict comparison: is reported Emax < 40%? input = CCCCCn1cc(C(=O)NC2CCCCCC2)c(=O)c2c(C)noc21
Not satisfied

# strict comparison: is reported Emax < 40%? input = CCCCCn1cc(C(=O)NC2CCCCCC2)c(=O)c2cnn(C)c21
Not satisfied

# strict comparison: is reported Emax < 40%? input = CCCCCn1cc(C(=O)NC2CCCCC2)c(=O)c2c(C)noc21
Not satisfied

# strict comparison: is reported Emax < 40%? input = CCCCn1cc(C(=O)NC2CCCCC2)c(=O)c2c(C)nn(C)c21
Satisfied

# strict comparison: is reported Emax < 40%? input = CCCCCn1cc(C(=O)NC2CCCCCC2)c(=O)c2c(C)nn(C)c21
Not satisfied
